# Tested on: ATP;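 note: ATP exposure 15 min at 22 °C before imaging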
# Assay Name: switch fluorescence ratio, 500 uM ATP over buffer (Cy3 cluster intensity, sum of 5 cycles each) (fold (ratio)); higher = stronger signal-on switching upon ATP binding; sequences stand for … in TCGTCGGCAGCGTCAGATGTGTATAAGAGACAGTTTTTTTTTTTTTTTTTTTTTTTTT…TC
# Measurement Setup: aptamer strand: ATP DNA aptamer (quencher-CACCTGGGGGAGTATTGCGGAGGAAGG + anchor), 100 nM annealed; ATP concentration: 500 uM

Residue String: TTTACCCCAT
switch fluorescence ratio: 1.05

Residue String: GCTAGTGAAC
switch fluorescence ratio: 1.03

Residue String: GGGGGTGTGA
switch fluorescence ratio: 1.02

Residue String: ATTGGGGGCC
switch fluorescence ratio: 0.967

Residue String: CGCGGGTGGT
switch fluorescence ratio: 1.02

Residue String: TACTGATCGT
switch fluorescence ratio: 1.04

Residue String: ACATGCGGGG
switch fluorescence ratio: 1.02

Residue String: CTCCATGGTT
switch fluorescence ratio: 1.06

Residue String: TAGGGCTGCA
switch fluorescence ratio: 1.06

Residue String: CTTACATTGC
switch fluorescence ratio: 1.05

Residue String: GCCAGTGCTG
switch fluorescence ratio: 1.02

Residue String: AAACTGATGA
switch fluorescence ratio: 1.06

Residue String: GCATTCAGGG
switch fluorescence ratio: 1.09

Residue String: GTGGGGATTG
switch fluorescence ratio: 0.938

Residue String: GATGTAGGGG
switch fluorescence ratio: 0.999

Residue String: AGTAAGAGAA
switch fluorescence ratio: 0.995

Residue String: CCCCACTGTG
switch fluorescence ratio: 1.53

Residue String: GATAACGTTT
switch fluorescence ratio: 0.99

Residue String: TTGTTTTACT
switch fluorescence ratio: 1.03

Residue String: CCAGGCACTG
switch fluorescence ratio: 1.03

Residue String: CAGTCGGTCA
switch fluorescence ratio: 1.01

Residue String: ATCGAACCTT
switch fluorescence ratio: 1.55

Data provenance: the supplement of paper PMC10126150
